Where these numbers come from: patent US9023858B2

- measuredOn: delta-5-desaturase (Rattus norvegicus)
- Construct: a rat liver microsome fraction (10 μl) diluted to 3 mg/ml with a microsome buffer; from tissue; host or cells: rat liver microsome fraction
- Sequence (Q920R3 whole entry): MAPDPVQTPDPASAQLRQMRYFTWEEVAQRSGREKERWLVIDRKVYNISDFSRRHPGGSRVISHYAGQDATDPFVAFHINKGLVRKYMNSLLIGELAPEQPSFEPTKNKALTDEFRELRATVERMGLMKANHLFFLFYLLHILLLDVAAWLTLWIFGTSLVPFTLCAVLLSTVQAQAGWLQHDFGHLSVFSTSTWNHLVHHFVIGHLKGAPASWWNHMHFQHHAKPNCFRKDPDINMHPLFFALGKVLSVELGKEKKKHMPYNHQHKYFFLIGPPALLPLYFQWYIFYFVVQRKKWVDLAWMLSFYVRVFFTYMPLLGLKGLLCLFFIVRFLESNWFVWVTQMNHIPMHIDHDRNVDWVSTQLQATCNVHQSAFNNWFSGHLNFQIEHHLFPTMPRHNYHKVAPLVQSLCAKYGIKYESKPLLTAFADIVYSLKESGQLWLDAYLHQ
- measurementDescription: Delta-5-desaturase inhibitory activity using rat liver microsome
- Assay type: biochemical
- conditionDescription: test compound 10 μM
resultType: inhibition at 10 µM (%)

[[record]]
smilescode = "CCSc1nc2nc(OC)cnc2c(=O)n1-c1ccc(OCC(F)(F)F)cc1"
testresult = 99

[[record]]
smilescode = "CCSc1nc2c(ccc(=O)n2C)c(=O)n1-c1ccc(OCC(F)(F)F)cc1"
testresult = 99

[[record]]
smilescode = "COc1nc2[nH]c(=O)ccc2c(=O)n1-c1ccc(OCC(F)(F)F)cc1"
testresult = 92

[[record]]
smilescode = "CCSc1nc2c(=O)[nH]ccc2c(=O)n1-c1ccc(OCC(F)(F)F)cc1"
testresult = 99

[[record]]
smilescode = "CCOc1nc2c(OCCOC)nccc2c(=O)n1-c1ccc(OCC(F)(F)F)cc1"
testresult = 98

[[record]]
smilescode = "CC(C)Oc1nc2[nH]c(=O)ccc2c(=O)n1-c1ccc(OCC(F)(F)F)cc1"
testresult = 104

[[record]]
smilescode = "O=c1ccc2c(=O)n(-c3ccc(OCC(F)(F)F)cc3)c(OCC(F)(F)F)nc2[nH]1"
testresult = 100

[[record]]
smilescode = "CCCSc1nc2c(=O)[nH]ccc2c(=O)n1-c1ccc(OCC(F)(F)F)cc1"
testresult = 97

[[record]]
smilescode = "COc1ccc2c(=O)n(-c3ccc(OCC(F)(F)F)cc3)c(SC)nc2n1"
testresult = 102

[[record]]
smilescode = "O=C1CCc2c(nc(OCC(F)(F)F)n(-c3ccc(OCC(F)(F)F)cc3)c2=O)N1"
testresult = 100


---

- measuredOn: delta-5-desaturase (Mus musculus, UniProt Q920L1)
- Construct: the mice were anesthetized, and the liver was isolated; tissue CLEA Japan, Inc; host or cells: liver of C57BL/6J mice (in vivo dosing)
- Sequence (Q920L1 1-447): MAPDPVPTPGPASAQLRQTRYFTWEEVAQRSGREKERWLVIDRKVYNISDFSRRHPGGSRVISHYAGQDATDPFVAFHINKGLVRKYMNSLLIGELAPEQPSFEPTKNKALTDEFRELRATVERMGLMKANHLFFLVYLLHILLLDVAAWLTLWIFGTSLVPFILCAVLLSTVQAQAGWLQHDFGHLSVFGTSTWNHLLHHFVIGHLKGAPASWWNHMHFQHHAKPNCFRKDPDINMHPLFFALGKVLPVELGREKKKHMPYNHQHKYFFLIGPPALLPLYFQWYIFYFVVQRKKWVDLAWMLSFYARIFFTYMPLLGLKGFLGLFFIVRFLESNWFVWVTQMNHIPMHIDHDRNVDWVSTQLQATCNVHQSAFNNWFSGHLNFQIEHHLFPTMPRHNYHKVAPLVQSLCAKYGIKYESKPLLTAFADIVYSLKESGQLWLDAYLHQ
- measurementDescription: Delta-5-desaturase inhibitory action in vivo (liver AA/DGLA ratio in mice)
- conditionDescription: 3 mg/kg by gavage for 4 days; male C57BL/6J mice; liver phospholipid fraction; solvent administration group as 100%
Counter-ions that a name gives are not always drawn.
resultType: lowering rate (%) of arachidonic acid/dihomo-γ-linolenic acid ratio

[[record]]
molecule = "CCSc1nc2nc(OC)ccc2c(=O)n1-c1ccc(OCC(F)(F)F)cc1"
measuredon = "delta-5-desaturase (Mus musculus, UniProt Q920L1)"
testresult = 73

[[record]]
molecule = "O=c1ccc2c(=O)n(-c3ccc(OCC(F)(F)F)cc3)c(OC3CCC(F)(F)CC3)nc2[nH]1"
measuredon = "delta-5-desaturase (Mus musculus, UniProt Q920L1)"
testresult = 69

[[record]]
molecule = "O=c1ccc2c(=O)n(-c3ccc(OCC(F)(F)F)cc3)c(OCC(F)F)nc2[nH]1"
measuredon = "delta-5-desaturase (Mus musculus, UniProt Q920L1)"
testresult = 69

[[record]]
molecule = "CCOc1nc2[nH]c(=O)ccc2c(=O)n1-c1ccc(OCC(F)(F)F)cc1 [Example 10, sodium salt]"
measuredon = "delta-5-desaturase (Mus musculus, UniProt Q920L1)"
testresult = 71

